// provenance: PubChem BioAssay (NCI)

- Test system: MCF7 breast
- TEST_METHOD_NOTES: NCI tumour cell line growth inhibition, 48 h
READOUT_TYPE: TGI

Below, 2 compounds whose answers are already recorded.
INSERT INTO results (compound, endpoint_result) VALUES
  ('COc1ccc2c(c1)[n+]([O-])c(/C(C)=N/NC(N)=S)c(C)[n+]2[O-]', '> 100 µM'),
  ('C[C@]12CCC(=O)C=C1CC[C@@H]1[C@@H]2CC[C@]2(C)C(=O)/C(=C/c3ccncc3)C[C@@H]12', '24.1 µM');

Recorded TGI for `Cc1nnc(N2C(=O)C(=Cc3ccc(Cl)cc3)N=C2c2ccc(Cl)cc2)nc1/C=C\c1ccc(N(C)C)cc1` with MCF7 breast, please? > 100 µM

Check COC1=CC(=O)c2c(O)c3c(c(O)c2C1=O)OC1(Oc2c(cc4cc(C)oc(=O)c4c2O)CC1O)C3O (stereo unspecified) too. > 100 µM

Input `COc1ccc(-c2cc(=O)c3c(OC)c(O)c(OC)cc3o2)cc1` > 100 µM

Thanks! And O=C(CC(C(=O)c1cccs1)c1ccsc1)c1ccc(Cl)cc1 (stereo unspecified) ? > 100 µM

Try this compound too: `Cn1cc(S(=O)(=O)NC(=O)Nc2ccc(Cl)cc2)c(=O)c2ccc(Cl)cc21` > 100 µM

Quick one: `Nc1nc(=O)c2[nH]cnc2n1O` > 100 µM

Here is the next compound: `O=c1[nH]ccc2nc(N3CCC(O)CC3)nc(Nc3ccc(N4CCOCC4)cc3)c12` > 100 µM

Same lookup for COc1ccc2c3c(ccc2c1)NC(C(=O)O)CC3 (stereo unspecified) , please. > 100 µM

Then what about the compound `COc1cc2c(cc1OCCCOc1cc3c(cc1OC)C(=O)N1CC(F)(F)C[C@H]1C=N3)N=C[C@@H]1CC(F)(F)CN1C2=O` ? 11.4 µM

* * *

- System: COLO 205 colon
- TEST_METHOD_NOTES: NCI tumour cell line growth inhibition, 48 h
READOUT_TYPE: TGI

Consider the reported TGI for these compounds:
INSERT INTO measurements (compound, readout_type, endpoint_result) VALUES
  ('CCOc1ccccc1NC(=O)CSc1nnc(Cc2ccccc2)o1', 'TGI', '36.5 µM'),
  ('CN1CCN2c3ccccc3CC(C#N)(C#N)C2C1 (stereo not given)', 'TGI', '> 100 µM'),
  ('NCc1ccc(O)c(O)c1O', 'TGI', '35.5 µM'),
  ('Cc1ccc(N/N=C/C2=CC(C)(C)C(C#N)(C#N)C(O)=C2C#N)cc1', 'TGI', '> 100 µM'),
  ('Cc1ccc2oc(=O)cc(CC(=O)O)c2c1', 'TGI', '> 100 µM');

Requested field: TGI. Item: `COC(=O)CCC(=O)Nc1cccc(C(F)(F)F)c1` > 100 µM

Lookup `CC(C)(c1ccccc1)c1ccc(Oc2ccc3c(c2)-c2nc-3nc3[nH]c(nc4nc(nc5[nH]c(n2)c2ccc(Oc6ccc(C(C)(C)c7ccccc7)cc6)cc52)-c2cc(Oc5ccc(C(C)(C)c6ccccc6)cc5)ccc2-4)c2ccc(Oc4ccc(C(C)(C)c5ccccc5)cc4)cc32)cc1` > 100 µM

Quick one: Cc1cc(Cl)ccc1NC(=O)C1C(=O)C(=O)N(c2ccc(Cl)cc2C)C1=O (stereo not given) > 100 µM

For `C/C(=N\NC(=O)C[n+]1ccccc1)c1sc(-c2nc(C)c(/C(C)=N/NC(=O)C[n+]3ccccc3)s2)nc1C` then? > 100 µM

Another compound: NC(CCCNc1ccc(O)cc1)C(=O)O (stereo not given) > 90.3 µM

* * *

- Tested on: A498 renal
- TEST_METHOD_NOTES: NCI tumour cell line growth inhibition, 48 h; in the data active = GI50 below about 0.43 µM; inactive = the rest
Your response should consist of one outcome taken from Y = active, N = inactive

Recorded results for 2 compounds are shown here.
INSERT INTO measurements (structure, assigned_category) VALUES
  ('Cc1cc(C)nc(NS(=O)(=O)c2ccc(Nc3nc4nc(NCc5ccccc5)nc(-c5ccc(O)cc5)c4c(=O)[nH]3)cc2)n1', 'N'),
  ('CN(Cc1ccccc1)c1ncnc2ccc(Br)cc12', 'N');

Short answer needed: outcome of this test for `CC[C@]12C=CCN3CC[C@@]4(c5ccc(OC)cc5N(C)[C@H]4[C@@](O)(C(=O)OC)[C@@H]1OC(=O)CCCC[P+](c1ccccc1)(c1ccccc1)c1ccccc1)[C@@H]32` ? N

One more compound: `O=C1C2=C(C(=O)c3c(O)ccc(O)c31)N(c1cccnc1)Cc1ccccc1O2` N

Another compound to look at: `O=c1[nH]ccc2nc(N3CCC(O)CC3)nc(Nc3ccc(N4CCOCC4)cc3)c12` N

Also check `COc1ccc(Nc2[nH]n(C3=Nc4ccccc4Sc4ccccc43)c(=O)c2C#N)cc1` N

Let us now turn to `[O-]c1ccccc1[C-]=Nc1ccccc1O.[O-]c1ccccc1[C-]=Nc1ccccc1O.[O]=[U]=[O]` N

Another: `C[C@]12CC/C(=N\O)C[C@@H]1CC[C@@H]1[C@@H]2CC[C@]2(C)/C(=N/O)CC[C@@H]12` N

* * *

Let's look at some molecules and their measured TGI.
- Test system: SF-295 CNS
- TEST_METHOD_NOTES: NCI tumour cell line growth inhibition, 48 h

INSERT INTO results (molecule, readout_type, endpoint_result) VALUES
  ('Clc1ccc(/C=c2\nc(-c3ccccc3)n3c2nc2ccccc23)cc1', 'TGI', '> 100 µM'),
  ('CCOC(=O)C1Nc2ccc([N+](=O)[O-])cc2[C@H]2OCC[C@@H]12 (stereo partly specified)', 'TGI', '> 100 µM'),
  ('O=c1ncc(I)c[nH]1', 'TGI', '> 100 µM'),
  ('CC(=O)Oc1c(C)cc2c(c1C)C(C)(C)CN2C(=O)C(C)(C)C', 'TGI', '> 100 µM'),
  ('Cc1c2ccccc2c(CSC(=N)N)c2ccccc12', 'TGI', '2.29 µM');

For SF-295 CNS, provide TGI of `CCCCCCCCCCCCCCCCSS(C)(=O)=O` please. > 100 µM

* * *

Overview of recorded TGI for various compounds
- Test system: HOP-92 NSCLC
- TEST_METHOD_NOTES: NCI tumour cell line growth inhibition, 48 h
Report the figure in µM without appending any unit label.

Example compounds with recorded TGI:
INSERT INTO assay_data (compound, unit_info, endpoint_result) VALUES
  ('Clc1cc(Cl)cc(C2SCc3nc4ccccc4n32)c1 (centres undefined)', 'µM', 47.2),
  ('CCCCCCCCCCCCCCCCOP(=O)(O)OP(=O)(O)OCC1OC(n2cnc3c(N)ncnc32)C(O)C1O (centres undefined)', 'µM', 36.7),
  ('COc1cc2c(cc1OCCCOc1cc3c(cc1OC)C(=O)N1CC(F)(F)C[C@H]1C=N3)N=C[C@@H]1CC(F)(F)CN1C2=O', 'µM', 7.73),
  ('CC[C@@]1(O)C(=O)OCc2c1cc1n(c2=O)Cc2cc3c([N+](=O)[O-])c(O)ccc3nc2-1', 'µM', 6.56),
  ('SCc1ccc(-c2ccc(CS)cc2)cc1', 'µM', 40.8),
  ('O=c1[nH]ccc2nc(N3CCC(O)CC3)nc(Nc3ccc(N4CCOCC4)cc3)c12', 'µM', 5.02),
  ('CC1(C)CC(=O)c2c([nH]c(=S)c(C#N)c2-c2ccc(Br)cc2)C1', 'µM', 52.5);

// next entry
If you can, please state the reported TGI value of `Cc1ccc(C(=O)Nc2ccc(CN3CCN(C)CC3)c(C(F)(F)F)c2)cc1C#Cc1cnc(N)c2ccc(C#N)cc12` . 0.714

* * *

- Test system: MDA-MB-231 breast
- TEST_METHOD_NOTES: NCI tumour cell line growth inhibition, 48 h
Reported values of TGI for individual entries

Examples with their reported TGI follow.
INSERT INTO assay_data (compound, endpoint_result) VALUES
  ('Clc1ccc(/C=c2\nc(-c3ccccc3)n3c2nc2ccccc23)cc1', '> 100 µM'),
  ('CCCCCCCCCCCCCCCCCCNc1ccn(C2OC(COP(=O)(O)OCC(COP(=O)(O)OCC3OC(n4cc(C)c(=O)[nH]c4=O)CC3N=[N+]=[N-])OCCCCCCCCCCCCCCCCCC)C(O)C2O)c(=O)n1 (stereo not drawn)', '> 100 µM');

Please examine the following record next.
Quick check: TGI of COc1ccc(C(=O)OC2C(OC3C(O)COC(O[C@H]4C[C@H]5[C@@H]6CC=C7C[C@@H](O)CC[C@]7(C)[C@H]6CC[C@]5(C)[C@H]4[C@H](C)C(=O)CCC(C)C)C3OC(=O)C(C)C)OCC(O)C2O)cc1 (stereo partly drawn) ? 4.65 µM

* * *

- System: SNB-19 CNS
- TEST_METHOD_NOTES: NCI tumour cell line growth inhibition, 48 h
# TGI values compiled below

INSERT INTO results (molecule, measured_target, readout_type, endpoint_result) VALUES
  ('O=C1CCN=C(NC(=O)C(F)(F)F)N1CCc1c[nH]c2ccccc12', 'SNB-19 CNS', 'TGI', '> 100 µM');

# ---- query molecule ----
Would you mind telling me what TGI value was observed for CC(=O)NC1C(O)C(O)C(CO)OC1n1nc(SCc2ccccc2)c(=O)[nH]c1=O (stereo not drawn) ? > 100 µM
